Target: Amyloid-beta precursor protein (Homo sapiens, UniProt P05067)
Sequence (P05067 whole entry): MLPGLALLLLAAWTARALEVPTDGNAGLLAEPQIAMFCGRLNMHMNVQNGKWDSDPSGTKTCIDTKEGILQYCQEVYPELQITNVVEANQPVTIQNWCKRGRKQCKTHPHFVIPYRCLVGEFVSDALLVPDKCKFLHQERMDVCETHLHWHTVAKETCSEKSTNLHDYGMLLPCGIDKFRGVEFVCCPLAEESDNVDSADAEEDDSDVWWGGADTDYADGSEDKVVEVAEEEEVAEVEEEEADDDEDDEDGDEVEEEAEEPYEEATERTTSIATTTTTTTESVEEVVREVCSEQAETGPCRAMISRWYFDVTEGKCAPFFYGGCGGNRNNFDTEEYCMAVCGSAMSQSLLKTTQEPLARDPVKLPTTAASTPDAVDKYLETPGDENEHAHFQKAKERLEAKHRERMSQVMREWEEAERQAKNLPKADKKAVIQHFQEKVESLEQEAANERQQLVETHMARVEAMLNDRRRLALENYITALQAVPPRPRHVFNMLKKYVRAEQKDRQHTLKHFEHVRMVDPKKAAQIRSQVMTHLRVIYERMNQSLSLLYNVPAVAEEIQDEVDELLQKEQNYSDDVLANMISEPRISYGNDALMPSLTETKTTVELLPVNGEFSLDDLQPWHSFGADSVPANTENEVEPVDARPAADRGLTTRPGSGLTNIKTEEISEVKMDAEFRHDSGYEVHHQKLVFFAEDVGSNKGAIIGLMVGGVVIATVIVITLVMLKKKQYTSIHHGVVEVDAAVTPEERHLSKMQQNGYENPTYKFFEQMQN
Experiment: Inhibition of amyloid beta (1 to 42) (unknown origin) self aggregation assessed as disaggregation relative to control
Parameters: concentration or dose not given beside the values
Conditions: concentration not given here
readout: inhibition (%)

Worked cases, answers included:
O=c1ccoc(/C=C/c2ccccc2Cl)c1O | 19.2
CC(C)(C)c1ccc(/C=C/c2occc(=O)c2O)cc1 | 31.6

1: O=c1ccoc(/C=C/c2ccc(N3CCCCC3)cc2)c1O
2: O=c1ccoc(/C=C/c2ccccc2F)c1O
Compare inhibition: is it lower for 1 or for 2 ? API: response body contains the label of the selected item.
2
(2: 12.6%, 1: 60.5%)

A: CN1CCN(c2ccc(/C=C/c3occc(=O)c3O)cc2)CC1
B: O=c1ccoc(/C=C/c2cccc(Cl)c2)c1O
C: O=c1ccoc(/C=C/c2ccc(F)cc2)c1O
Sort these compounds on inhibition so the largest reading comes first. // ordering of labels required in reply
A, B, C
(A: 56.1%, B: 28.2%, C: 14.8%)

* * *

Assay: Drug concentration in plasma of Sprague-Dawley rat at 15 mg/kg, IG measured after 0.5 hrs
Format: ADME, organism-based
Conditions: po
readout: concentration at 0.5 h (ng/mL)
Express it in ng/mL; write the number only.

Look up concentration at 0.5 h: "O=c1ccoc(/C=C/c2ccc(O)c(O)c2)c1O"
2.68

* * *

Assay: Drug concentration in hippocampus of Sprague-Dawley rat at 15 mg/kg, IG measured after 0.083 hrs
Format: ADME, organism-based
Conditions: po, read-out: Drug uptake
readout: concentration at 0.083 h (ng/mL)
Express it in ng/mL; write the number only.

Look up concentration at 0.083 h: "O=c1ccoc(/C=C/c2ccc(O)c(O)c2)c1O"
1.14

* * *

Known Nitric oxide release (% of LPS control) of a selection of molecules
Tested on: BV-2
Test: Antiinflammatory activity in LPS induced mouse BV-2 cells decrease in release of […] at 5 uM by […] (reference value: 100%)
Format: functional
Express it in %; write the number only.

Observed Nitric oxide release (% of LPS control) on BV-2 for "O=c1ccoc(/C=C/c2ccc(N3CCSCC3)cc2)c1O" , please.
98.13

// repeat for "O=c1ccoc(/C=C/c2ccc(O)cc2)c1O" and report
86.81

// repeat for "CN1CCN(c2ccc(/C=C/c3occc(=O)c3O)cc2)CC1" and report
96.04

// repeat for "O=c1ccoc(/C=C/c2ccc3ccccc3c2)c1O" and report
102.37

// repeat for "O=c1ccoc(/C=C/c2ccccc2)c1O" and report
78.21

// repeat for "O=c1ccoc(/C=C/c2ccc(O)c(O)c2)c1O" and report
86.32

// repeat for "COC(=O)c1ccc(/C=C/c2occc(=O)c2O)cc1" and report
71.82

// repeat for "O=c1ccoc(/C=C/c2cccc(Cl)c2)c1O" and report
88.17

// repeat for "O=c1ccoc(/C=C/c2ccc(C(F)(F)F)cc2)c1O" and report
88.82

// repeat for "N#Cc1ccc(/C=C/c2occc(=O)c2O)cc1" and report
88

// repeat for "Oc1ccc(/C=C/c2cc(O)cc(O)c2)cc1" and report
86.97

// repeat for "COc1ccc(/C=C/c2occc(=O)c2O)cc1OC" and report
97.14

// repeat for "O=c1ccoc(/C=C/c2ccc([N+](=O)[O-])cc2)c1O" and report
88.99
